system: SK-MEL-2; experiment: NCI tumour cell line growth inhibition, 48 h
Active and inactive are the calls of the source. Cut-off read from the data, not from the text of the source: active = GI50 up to about 1.1 µM and inactive = higher.
API: response.call in y for active, n for inactive

COMPOUND	EXPERIMENTAL SYSTEM	GROUP LABEL
Cc1cc2nc3ccc(N(C)C)cc3[s+]c2cc1N [TOLONIUM CHLORIDE]	SK-MEL-2	n
Cc1c(NC(=S)NN)c(=O)n(-c2ccccc2)n1C	SK-MEL-2	n
Cc1cc(S(=O)(=O)NC2=Nc3cccc(F)c3CN2)c(S)cc1Cl	SK-MEL-2	n
O=c1nc(-c2ccccc2)scc1-c1ccccc1	SK-MEL-2	n
CCOC(=O)c1ccc(-n2cnc(-c3ccc([N+](=O)[O-])cc3)c2)cc1	SK-MEL-2	n

Could you kindly confirm the outcome this assay logged for `COc1ccccc1CNCCCCCNCCCCCCCCCCNCCCCCNCc1ccccc1OC` ?
n

Could you kindly confirm the outcome this assay logged for `N#C/C(=N\c1ccccc1N(C(=O)c1ccccc1)C(=O)c1ccccc1)c1ccccc1` ?
n

Could you kindly confirm the outcome this assay logged for CCOC1=CP(=O)(OCC)CC(C)=C1Cl (stereo not given) ?
n

Could you kindly confirm the outcome this assay logged for `CCOC(=O)c1c(Nc2ccccc2)sc2cccnc12` ?
n

Could you kindly confirm the outcome this assay logged for `O=C1Nc2ccccc2/C1=N/NC(=S)Nc1ccc(Cl)cc1` ?
n

Could you kindly confirm the outcome this assay logged for `O=C(NCCCNCCN1C(=O)c2cccc3cc([N+](=O)[O-])cc(c23)C1=O)c1cc(-c2ccccc2)nc2ccccc12` ?
n

Could you kindly confirm the outcome this assay logged for `O=C1C(Cl)=C(N2C(=O)CCCC2=O)C(=O)c2ccccc21` ?
n

Could you kindly confirm the outcome this assay logged for `CCN(CC)CCOCCn1c2c(c3ccccc31)CCCC2` ?
n

Could you kindly confirm the outcome this assay logged for `O=Cc1ccc2[nH]c(=O)oc2c1` ?
n

Could you kindly confirm the outcome this assay logged for COC(OC)C1(c2ccccc2)Oc2ccccc2C1=O (stereo not given) ?
n
